- study target: human ether-à-go-go-related gene (hERG) potassium channel (human);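 further: peak tail current of the secondary pulse compared with the same well before compound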
- Sequence (Q12809 whole entry, looked up): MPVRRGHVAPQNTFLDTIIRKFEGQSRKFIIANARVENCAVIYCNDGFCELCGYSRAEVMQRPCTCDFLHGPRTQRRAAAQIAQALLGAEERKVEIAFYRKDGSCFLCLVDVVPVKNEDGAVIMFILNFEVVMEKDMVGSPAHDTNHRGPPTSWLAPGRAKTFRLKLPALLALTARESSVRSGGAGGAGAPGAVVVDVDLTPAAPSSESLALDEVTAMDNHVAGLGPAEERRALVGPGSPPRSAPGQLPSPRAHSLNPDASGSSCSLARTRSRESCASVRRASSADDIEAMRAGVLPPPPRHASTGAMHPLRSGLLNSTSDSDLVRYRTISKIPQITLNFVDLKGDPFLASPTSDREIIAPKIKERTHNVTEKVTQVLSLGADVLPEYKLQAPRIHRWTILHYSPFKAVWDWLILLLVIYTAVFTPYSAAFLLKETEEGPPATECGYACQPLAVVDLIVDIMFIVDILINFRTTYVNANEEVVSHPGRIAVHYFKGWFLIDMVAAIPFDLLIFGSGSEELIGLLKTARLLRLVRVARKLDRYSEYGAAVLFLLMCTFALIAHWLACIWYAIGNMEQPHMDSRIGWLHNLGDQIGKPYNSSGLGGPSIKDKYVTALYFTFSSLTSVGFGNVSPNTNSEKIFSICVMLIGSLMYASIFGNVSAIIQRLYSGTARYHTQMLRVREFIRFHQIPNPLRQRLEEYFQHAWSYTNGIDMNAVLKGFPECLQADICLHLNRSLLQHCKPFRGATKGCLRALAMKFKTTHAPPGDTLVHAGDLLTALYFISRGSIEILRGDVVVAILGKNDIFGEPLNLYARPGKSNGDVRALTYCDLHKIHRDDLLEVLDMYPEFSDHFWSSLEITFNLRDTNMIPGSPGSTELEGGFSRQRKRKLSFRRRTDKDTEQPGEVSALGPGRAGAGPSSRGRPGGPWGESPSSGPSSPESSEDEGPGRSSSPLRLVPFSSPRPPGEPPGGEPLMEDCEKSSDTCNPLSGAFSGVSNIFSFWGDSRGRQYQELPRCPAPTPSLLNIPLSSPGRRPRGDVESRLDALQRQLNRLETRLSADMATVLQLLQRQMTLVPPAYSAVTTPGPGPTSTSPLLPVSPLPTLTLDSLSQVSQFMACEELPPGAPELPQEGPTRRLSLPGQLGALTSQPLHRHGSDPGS
- protocol: primary screen, population patch clamp on CHO cells stably expressing hERG; higher = less effect of the substance
Hit rate of the full screen: of about 310,000 compounds, about 14,000 (4.5%) showed an effect of 50% or more. Effects have a minus sign here. For the sample, strong results were picked, then their nearest neighbours and some compounds at random.
experimental readout: hERG current change (%, negative = inhibition) at 10uM (%)

>  <compound>
CN1CCN(CC(=O)Nc2ccc(OC(F)(F)F)cc2)CC1.Cl

>  <unit string>
%

>  <observed measurement>
-65.1

$$$$
>  <compound>
COc1ccc(Cl)cc1NC(=O)CN(C(=O)c1ccco1)C1CCCCC1

>  <unit string>
%

>  <observed measurement>
-2.36

$$$$
>  <compound>
O=C(Nc1cc(Cl)ccc1-n1cncn1)c1cccc(S(=O)(=O)N2CCOCC2)c1

>  <unit string>
%

>  <observed measurement>
-61.9

$$$$
>  <compound>
CC(=O)c1ccc(NC(=O)C2C3C=CC(C3=C(c3ccccc3)c3ccccc3)C2C(=O)O)cc1 (stereo not shown)

>  <unit string>
%

>  <observed measurement>
2.53

$$$$
>  <compound>
Cc1c(N2C(=O)CS/C2=N\N=C\c2ccc(Cl)cc2)c(=O)n(-c2ccccc2)n1C

>  <unit string>
%

>  <observed measurement>
-32.2

$$$$
>  <compound>
O=C1c2cccnc2C(Nc2ccc(S(=O)(=O)N3CCCCCC3)cc2)N1Cc1ccccc1 (stereo not shown)

>  <unit string>
%

>  <observed measurement>
-9.79

$$$$
>  <compound>
CC(=O)n1cc([C@H]2C=C(C(=O)Nc3ccccc3)O[C@@H](OCc3ccc(CO)cc3)C2)c2ccccc21

>  <unit string>
%

>  <observed measurement>
-2.85

$$$$
>  <compound>
O=C(CN1CCN(c2ccccn2)CC1)Nc1ccc(OC(F)(F)F)cc1

>  <unit string>
%

>  <observed measurement>
-29.9

$$$$
>  <compound>
O=C(NCCN1CCOCC1)c1ccc(CS(=O)(=O)c2ccc(Br)cc2)o1

>  <unit string>
%

>  <observed measurement>
-2.9

$$$$
>  <compound>
CSCc1ccc(C(=O)N2CCCC(Nc3ccc(F)cc3)C2)o1 (stereo not shown)

>  <unit string>
%

>  <observed measurement>
-18.7

$$$$
>  <compound>
C/C(=N/O)c1cc(C(C)(C)C)c(O)c(C(C)(C)C)c1

>  <unit string>
%

>  <observed measurement>
14.6

$$$$
>  <compound>
Cc1ccccc1S(=O)(=O)Cc1ccc(C(=O)NCCCN2CCN(C)CC2)o1

>  <unit string>
%

>  <observed measurement>
-1.6

$$$$
>  <compound>
O=C(NCCCN1CCOCC1)c1ccc(CS(=O)(=O)c2ccc(Br)cc2)o1

>  <unit string>
%

>  <observed measurement>
-6.32

$$$$
>  <compound>
CCN(CC1CCCN(CCc2cccc(F)c2)C1)C(=O)c1ccc(CSC)o1 (stereo not shown)

>  <unit string>
%

>  <observed measurement>
-74.5

$$$$
>  <compound>
CCN(CC)c1ccc(C(=O)NC(=S)Nc2cc(S(=O)(=O)N3CCOCC3)ccc2-n2cncn2)cc1

>  <unit string>
%

>  <observed measurement>
-7.1

$$$$
>  <compound>
O=C(NCCN1CCN(Cc2ccccc2)CC1)c1ccc(CS(=O)(=O)c2ccc(Br)cc2)o1

>  <unit string>
%

>  <observed measurement>
-79.8

$$$$
>  <compound>
CCc1nnc(NC(=O)c2cccs2)s1

>  <unit string>
%

>  <observed measurement>
9.54

$$$$
>  <compound>
CN(C)CCN(CC1CCCN(Cc2ccccc2F)C1)C(=O)Cc1c(F)cccc1F (stereo not shown)

>  <unit string>
%

>  <observed measurement>
-9.05

$$$$
>  <compound>
COc1ccccc1C(=O)Nc1cc(Cl)ccc1-n1cncn1

>  <unit string>
%

>  <observed measurement>
0.114

$$$$
>  <compound>
CCN(CC)C(=O)C1CCCN(Cc2cccc(F)c2)C1 (stereo not shown)

>  <unit string>
%

>  <observed measurement>
7.43

$$$$
>  <compound>
CCN1CCN(CC(=O)Nc2ccc(OC(F)(F)F)cc2)CC1.Cl

>  <unit string>
%

>  <observed measurement>
-69.1

$$$$
>  <compound>
O=C(Nc1cc(Cl)ccc1-n1cncn1)c1ccc(F)c(S(=O)(=O)N2CCOCC2)c1

>  <unit string>
%

>  <observed measurement>
-44.6

$$$$
>  <compound>
C=CCNC(=O)c1ccc(C(=O)c2ccccc2)cc1

>  <unit string>
%

>  <observed measurement>
-27.8

$$$$
>  <compound>
CN(C)/C=N/c1c(C(=O)NCc2ccccc2)nnn1Cc1ccccc1

>  <unit string>
%

>  <observed measurement>
-12.2

$$$$
>  <compound>
Cl.O=C(CN1CCCC1)Nc1ccc(OC(F)(F)F)cc1

>  <unit string>
%

>  <observed measurement>
-41.1

$$$$
